Test: soluble on expression in E. coli; label from the status in PepcDB or PDB records
measuredParameter: soluble on expression in E. coli

[[record]]
seqtext = "GSHMLPSCKEDEYPVGSECCPKCSPGYRVKEACGELTGTVCEPCPPGTYIAHLNGLSKCLQCQMCDPAMGLRASRNCSRTENAVCGCSPGHFCIVQDGDHCAACRAYA"
result = "soluble"

[[record]]
seqtext = "GMQIESFKSLLPKYKCIFFDAFGVLKTYNGLLPGIENTFDYLKAQGQDYYIVTNDASRSPEQLADSYHKLGLFSITADKIISSGMITKEYIDLKVDGGIVAYLGTANSANYLVSDGIKMLPVSAIDDSNIGEVNALVLLDDEGFNWFHDLNKTVNLLRKRTIPAIVANTDNTYPLTKTDVAIAIGGVATMIESILGRRFIRFGKPDSQMFMFAYDMLRQKMEISKREILMVGDTLHTDILGGNKFGLDTALVLTGNTRIDDAETKIKSTGIVPTHICESAVIEL"
result = "soluble"

[[record]]
seqtext = "MSLEKSGFIVHQKFDSILQLEDFDSLDRALKESESYYQKLPSNWKTQVRKTSYHKNQMLNSLKILKKILREKNPESRKIQFQNSFLLLETKDEALGRITAYYEVIIEGRFYPEGDFIYPVLETPSDLIVKKDGNKKSVGKIINEVFVPYETREELSHTSVWKKRSKAIVYVKIVDLHLAQLEGSAFVKVPDHIPFRITYSEDNGKEYQSPAESLKGICSSLIPSDLKSCILKYPKEVEMAILKNPRYIFFKLESSAPRGSGGIELIPKRSVAMDPGIPLGIPVLISFESSVLTEKNRIVFVHDRGSQITGHGRLDYFLGTGETAEYQAGKINTQGKIFLILPKIKNEGHHHHHH"
result = "soluble"


====

Test: soluble on expression in E. coli; label from the status in PepcDB or PDB records
measuredParameter: soluble on expression in E. coli

[[record]]
seqtext = "DIEVSEDVRKEQLGWLSCVSRAILKQNIITYSQPIVHAYSHLPASQECLVRILEEDGTVIAPGRFLPIISDTHLYTRLSRHMIRSTLHYMRDKKGDFSINLSPQDLLSDKTLMLLEHEISQLNDPTRIGLEVLESEQIKDYGRMIEVCSHFRKLGARIIVDDFGSGYSNIDEILKLEPEVIKLDGSLIRDIDKDLKQRKIASQLVRLCQVFNAETVAEFVHNREVCKIAQDMGVDYLQGYYLGEP"
result = "not soluble"

[[record]]
seqtext = "GRISMTVKKLYFIPAGRCMLDHSSVNSALTPGKLLNLPVWCYLLETEEGPILVDTGMPESAVNNEGLFNGTFVEGQILPKMTEEDRIVNILKRVGYEPDDLLYIISSHLHFDHAGGNGAFTNTPIIVQRTEYEAALHREEYMKECILPHLNYKIIEGDYEVVPGVQLLYTPGHSPGHQSLFIETEQSGSVLLTIDASYTKENFEDEVPFAGFDPELALSSIKRLKEVVKKEKPIIFFGHDIEQEKSCRVFPEYI"
result = "soluble"

[[record]]
seqtext = "MGSDKIHHHHHHAQQLNVQGDLVSSYVWRGMYQTGASIQPTLGFSVGNFSLTAWGSTDFDGTSASAGAAAKEIDLTAAYTLGRSGLTVSVADLWWAGQGARKYFNFKSHETAHHFEAGVAYTVQSETFPLSVAWYTMFAGQDKNAEGGQNYSSYVEFNYPFRVRMVDLNVTCGMVPYAAPQYNCDGFAVTNVALKGTTQIRFTDKFALPVFAQAVWNPRMEDAHLVFGITLKP"
result = "not soluble"

[[record]]
seqtext = "MGHHHHHHSHKPVPWVEKYRPKCVDEVAFQEEVVAVLKKSLEGADLPNLLFYGPPGTGKTSTILAAARELFGPELFRLRVLELNASDERGIQVVREKVKNFAQLTVSGSRSDGKPCPPFKIVILDEADSMTSAAQAALRRTMEKESKTTRFCLICNYVSRIIEPLTSRCSKFRFKPLSDKIQQQRLLDIAKKENVKISDEGIAYLVKVSEGDLRKAITFLQSATRLTGGKEITEKVITDIAGVIPAEKIDGVFAACQSGSFDKLEAVVKDLIDEGHAATQLVNQLHDVVVENNLSDKQKSIITEKLAEVDKCLADGADEHLQLISLCATVMQQLSQNC"
result = "not soluble"

[[record]]
seqtext = "MSLKKLDYHFHSHFSADSEELPRKHVTEAIAHGLEEICFTEHRDFYFPGMDFSLNLPEYFQEINRLQAEFKDKIKIKIGLEMGIDLRFKSEINQFIDSAPFDFVIASVHEIGDIEVYDGTEFYLQKIKEEAQREYLLACLDVVQNFENYNSFGHLDYVARYGPYTDKSIKFAENREILFEILRALASKEKALEINTRLFDDPKTEQFYSDLLINFKKLGGKFITLGTDSHIAKRDWLSIHKARTLIKKAGFHELATFSGMKIDKNKKSIKEGHHHHHH"
result = "soluble"

[[record]]
seqtext = "SSGRSVRAETRSRAKDDIKKVMAATERVRRWEKKWVTVGDTSLRIFKWVPVTETKQIYKPKGAGPAVRELKGFPTDVVLENARSVLLDFQDDNSNQSFLSDAYQSNTKVDSSSNSSPQHVSEAVSPSHPPYYRTEDSQPPTLGQESMEAEREASTTSSEVTDEPPTLIKEDVLSLSTQEEEEAIGAPPLKRVCTEHNSTVS"
result = "soluble"

[[record]]
seqtext = "MMTLPYPYSSSARFYALRLLPGQEVFSQLHAFAQQQQLHAAWIAGCTGSLTDIALRYAGQEGTTLLNGTFEVISLNGTLEQSGEHLHLCVSDPHGTMLGGHMMPGCTVRTTLELVIGSLEELAFSRQPCALSGYDELHISPVK"
result = "not soluble"

[[record]]
seqtext = "MDGIFAGIICNQANRCLTWTSQQLFSEKISGAEGTKLDDEFLDMERKIDVTNKVVAEILSKTTEYLQPNPAYRAKLGMLNTVSKIRGQVKTTGYPQTEGLLGDCMLKYGKELGEDSTFGNALIEVGESMKLMAEVKDSLDINVKQTFIDPLQLLQDKDLKEIGHHLKKLEGRRLDYDYKKKRVGKIPDEEVRQAVEKFEESKELAERSMFNFLENDVEQVSQLAVFIEAALDYHRQSTEILQELQSKLQMRISAASSVPRREYKPRPVKRSSSELNGVSTTSVVKTTGSNIPMDQPCCRGLYDFEPENQGELGFKEGDIITLTNQIDENWYEGMIHGESGFFPINYVEVIVPLPQ"
result = "soluble"

[[record]]
seqtext = "TPMYESTSELYVLSKSTSITSLADIQTGTSLTNDYIVVVKGRPVLDQVIENLNLNESYKTLGGRVTLDNPSNSRVLNITVTDPDPQMAKTIADEIAKVASAYIAEKMKQDPPTIIQSGYDDGGAVSPNIGKNT"
result = "not soluble"

[[record]]
seqtext = "MGAGPSDHRAITLEGTTVMVPVYNSTAQQSPYQLTTTADGGVALHHQGELTTTLETPPEPHFYNLQTAESIPYKAIALLHGKDVLATTLQQTCIRFRDRSESCQFCAIEQSLTSGQTIVRKTPEQVAEVVAAAVRLDGVRQLVMTTGTPNSRDRGARLMAETAAAVKAVVDIPIQAQCEPPDDPVWFSRMKAAGVNSLGMHLEVVEPEVRRRILPGKSELTLEHYYRAFEQAVAVFGRGEVSTYLLAGLGDSADSLIDCSRRLIAIGVYPFIVPFVPIAGTPLERHPAPTTAFMLQIYEAVGALLHDSDLRSAAMSAGLEHHHHHH"
result = "not soluble"

[[record]]
seqtext = "MLYVLNKCNGLESVEIIHYNNETTDMKELVENPIIVNCKQVTISTVGGMYGSRELLMNFQIERLISGDSAIGTRFRQGSYEPDHVMSLVNSCFKDRVVNFQDHQGLRLRTDNLAKQILVKKCCRDDFEFEWGVSCRVIPSNLQDIDFEEDWPIWTDIDSDEDCDYSSDDEYEYQYNSDSD"
result = "not soluble"

[[record]]
seqtext = "MRNTKGNELEDREILASSLHANGISETVLLQIWNATEENLDKLVSALNVYKKGKISITWHEIMTVKENNEAIIPFSVAVQNIYGAFKNIDEELAELARNAIESGWVDAEPRENKPPGGFCAPFFSEKESRISMRYDGSIDSVRILAHELGHAWHFYNMSFEQSSSFLDDYLPMSTAESASIFFETLLINYLIQTTDSIDIKKSLLSWKIRNCFNYVMAIRASFEFEKNFYEKCKESPISADEIEKISIVAQEKAYGNALSEYQPFVWMKYVQFYIADVPFYNYPYTFGYLVSFSLLEIAKENKSTFHSKFKEFLRENGKAPVEELIKKHFEIDITSYAFWDKAFKQISKDIDAYLRLI"
result = "not soluble"

